assay: Critical micelle concentration (CMC) measurement, dye micellization; assay type: physicochemical; conditions: fluorescein dye micellization in water, pH 6.9, room temperature
quantity measured: CMC

- compound: "CCCCCCC/C=C/C=C/C(=O)N1CCCCC1"
  meas value: ">5 µM"
- compound: "CCCCCCC/C=C/C=C/C(=O)NCC(C)C [Compound A, (2E,4E)-N-isobutyldodeca-2,4-diene amide]"
  meas value: "<0.5 µM"
- compound: "CCCCCCC/C=C/C=C/C(=O)N1CCCC1"
  meas value: ">5 µM"
- compound: "CCCCCCC/C=C/C=C/C(=O)NCC(C)CC (racemic)"
  meas value: ">5 µM"
- compound: "CCCCCCC/C=C/C=C/C(=O)NCCC(C)C"
  meas value: ">5 µM"
- compound: "CCCCCCC/C=C/C=C/C(=O)NCc1ccoc1"
  meas value: "< 3 µM"
- compound: "CCCCCCC/C=C/C=C/C(=O)NCc1cccn1C"
  meas value: "< 1 µM"
- compound: "CCCCCCC/C=C/C=C/C(=O)NCCc1cccc(OC)c1"
  meas value: ">5 µM"

For the compound shown here, CCCCCCC/C=C/C=C/C(=O)NCCO , give the reported CMC.
>10 µM

###

Target: human recombinant Fatty acid amide hydrolase (Homo sapiens)
Sequence (O00519 1-579): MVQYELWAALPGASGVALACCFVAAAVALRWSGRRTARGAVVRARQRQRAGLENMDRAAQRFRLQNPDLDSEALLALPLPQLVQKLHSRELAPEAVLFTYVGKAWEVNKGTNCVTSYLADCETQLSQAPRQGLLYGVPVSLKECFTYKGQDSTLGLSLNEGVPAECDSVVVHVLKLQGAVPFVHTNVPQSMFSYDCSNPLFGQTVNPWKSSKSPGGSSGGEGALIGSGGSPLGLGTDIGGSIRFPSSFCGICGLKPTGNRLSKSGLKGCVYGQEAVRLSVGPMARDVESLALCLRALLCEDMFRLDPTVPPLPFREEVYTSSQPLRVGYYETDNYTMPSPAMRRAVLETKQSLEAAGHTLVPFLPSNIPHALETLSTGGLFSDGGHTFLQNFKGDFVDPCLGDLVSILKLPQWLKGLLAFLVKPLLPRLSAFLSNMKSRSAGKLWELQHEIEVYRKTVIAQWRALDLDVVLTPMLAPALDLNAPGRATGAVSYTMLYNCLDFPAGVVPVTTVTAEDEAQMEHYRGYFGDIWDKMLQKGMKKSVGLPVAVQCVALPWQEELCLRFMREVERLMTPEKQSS
Assay: Inhibition of human recombinant FAAH, fluorometric method (assay G)
Type: biochemical
Conditions: human recombinant enzyme, AMC-anandamide substrate (assay G)
quantity measured: FAAH inhibition at 1 µM

Below, each entry is followed by its recorded FAAH inhibition at 1 µM result.
- compound: "CCCCCCC/C=C/C=C/C(=O)NCCc1cccc(OC)c1"
  meas value: "16 % of control"
- compound: "CCCCCCC/C=C/C=C/C(=O)NCc1nnn(C(=O)N(C)C)n1"
  meas value: "101 % of control"
- compound: "CCCCCCC/C=C/C=C/C(=O)Nc1ccccc1"
  meas value: "2 % of control"
- compound: "CCCCCCC/C=C/C=C/C(=O)NCCc1ccco1"
  meas value: "42 % of control"
- compound: "CCCCCCC/C=C/C=C/C(=O)Nc1nc2cc(C)c(C)cc2s1"
  meas value: "30 % of control"
- compound: "CCCCCCC/C=C/C=C/C(=O)NCc1ccc(OC)cc1"
  meas value: "6 % of control"
- compound: "CCCCCCC/C=C/C=C/C(=O)NCC(O)c1ccc(OC)cc1 (stereo not drawn)"
  meas value: "-1 % of control"
- compound: "CCCCCCC/C=C/C=C/C(=O)NCCc1ccccn1"
  meas value: "-2 % of control"

Recorded FAAH inhibition at 1 µM of CCCCCCC/C=C/C=C/C(=O)Nc1nc2ccccc2s1 , please.
61 % of control

Given CCCCCCC/C=C/C=C/C(=O)NCCc1ccsc1 , state its recorded FAAH inhibition at 1 µM.
53 % of control

// returns reported FAAH inhibition at 1 µM for input CCCCCCC/C=C/C=C/C(=O)Nc1nccs1
-16 % of control

Which FAAH inhibition at 1 µM is listed for CCCCCCC/C=C/C=C/C(=O)Nc1ccc(Oc2ccc(C(F)(F)F)cc2)cc1 ?
30 % of control

Source listed as patent EP2435019B1.
